- Tested on: OVCAR-4
readout: GI50 (µM)
State just the number; it will be interpreted in µM.

Task: Name the reported GI50 value associated with the molecule `CCOC(=O)c1cc2c(n1Cc1cc(OC)c(OC)c(OC)c1)-c1oncc1CCC2`
Output: 0.72

Task: Name the reported GI50 value associated with the molecule `CCOC(=O)c1c(Cl)c2c(n1Cc1cc(OC)cc(OC)c1)-c1oncc1CCC2`
Output: 0.85

Task: Name the reported GI50 value associated with the molecule `CCOC(=O)c1cc2c(n1Cc1cccc(OC)c1)-c1oncc1CCC2`
Output: 18.7

Task: Name the reported GI50 value associated with the molecule `CCOC(=O)c1cc2c(n1Cc1ccccc1OC)-c1oncc1CCC2`
Output: 9.35

Task: Name the reported GI50 value associated with the molecule `CCOC(=O)c1cc2c(n1Cc1cc(OC)cc(OC)c1)-c1oncc1CCC2`
Output: 13.4

###

- Test system: RXF 393
readout: log10 GI50 (log10 of the value in nM)
Would you kindly interpret these values as log10 of GI50 expressed in nM?

Task: Name the reported log10 GI50 value associated with the molecule `CCOC(=O)c1cc2c(n1Cc1cc(OC)c(OC)c(OC)c1)-c1oncc1CCC2`
Output: 2.08

Task: Name the reported log10 GI50 value associated with the molecule `CCOC(=O)c1cc2c(n1Cc1ccccc1OC)-c1oncc1CCC2`
Output: 3.32

Task: Name the reported log10 GI50 value associated with the molecule `CCOC(=O)c1cc2c(n1Cc1cccc(OC)c1)-c1oncc1CCC2`
Output: 2.83

Task: Name the reported log10 GI50 value associated with the molecule `CCOC(=O)c1cc2c(n1Cc1cc(OC)cc(OC)c1)-c1oncc1CCC2`
Output: 1.30

Task: Name the reported log10 GI50 value associated with the molecule `CCOC(=O)c1c(Cl)c2c(n1Cc1cc(OC)cc(OC)c1)-c1oncc1CCC2`
Output: 2.40

###

- Test system: MINO (MCL)
- protocolNotes: MTT cell proliferation, lymphoma
- Assay type: cell-based
- assayContext: Homo sapiens, 72 h, MTT
Consider the following compounds; for each one, report its log10(IC50).
Would you kindly interpret these values as log10 of IC50 expressed in nM?

Task: Name the reported log10(IC50) value associated with the compound `CCOC(=O)c1c(Cl)c2c(n1Cc1cc(OC)cc(OC)c1)-c1oncc1CCC2`
Output: 2.95

Task: Name the reported log10(IC50) value associated with the compound `CCOC(=O)c1c(Cl)c2c(n1Cc1ccccc1OC)-c1oncc1CCC2`
Output: 3.53

Task: Name the reported log10(IC50) value associated with the compound `CCOC(=O)c1cc2c(n1Cc1ccccc1OC)-c1oncc1CCC2`
Output: 3.60

Task: Name the reported log10(IC50) value associated with the compound `CCOC(=O)c1cc2c(n1Cc1cc(OC)cc(OC)c1)-c1oncc1CCC2`
Output: 2.40

Task: Name the reported log10(IC50) value associated with the compound `COc1ccc(OC)c(Cn2ccc3c2-c2oncc2CCC3)c1`
Output: 2.60

Task: Name the reported log10(IC50) value associated with the compound `CCOC(=O)c1c(Cl)c2c(n1Cc1cc(OC)ccc1OC)-c1oncc1CCC2`
Output: 2.90

Task: Name the reported log10(IC50) value associated with the compound `CCOC(=O)c1cc2c(n1Cc1cccc(OC)c1)-c1oncc1CCC2`
Output: 3.41

Task: Name the reported log10(IC50) value associated with the compound `CCOC(=O)c1cc2c(n1Cc1cc(OC)c(OC)c(OC)c1)-c1oncc1CCC2`
Output: 2.78
